# Test system: rabbit model of dry eye syndrome
# ASSAY REMARKS: Alcian blue assay of conjunctival mucus secretion in N-acetylcysteine-induced rabbit dry eye syndrome model
# Format: in vivo, New Zealand White (NZW) rabbits
# ASSAY CONTEXT: 0.5% solution instilled 4 times/day (0.1 mL) for seven days; conjunctiva, absorbance at 605 nm; Mean ± S.D.
Give Alcian Blue Assay Absorbance/g tissue for every item shown.
Your reply should be a number followed by the unit it is expressed in.

Some entries whose results are on file:
Query: Request the reported Alcian Blue Assay Absorbance/g tissue associated with COc1ccc(-c2cc(=O)c3c(OC)cc(OCC(=O)NS(C)(=O)=O)cc3o2)cc1OC [Example 9]
Result: 0.35 ± 0.13 Absorbance/g tissue

Query: Request the reported Alcian Blue Assay Absorbance/g tissue associated with COc1ccc(-c2cc(=O)c3c(OC)cc(OCC(=O)NC#N)cc3o2)cc1OC [Example 4]
Result: 0.24 ± 0.19 Absorbance/g tissue

Query: Request the reported Alcian Blue Assay Absorbance/g tissue associated with COc1ccc(-c2cc(=O)c3c(OC)cc(OCC(=O)NS(=O)(=O)c4ccccc4)cc3o2)cc1OC [Example 5]
Result: 0.32 ± 0.09 Absorbance/g tissue

Now turn to the next compound.
Query: Request the reported Alcian Blue Assay Absorbance/g tissue associated with `COc1ccc(-c2cc(=O)c3c(OC)cc(OCC(=O)O)cc3o2)cc1OC.O`
Result: 0.38 ± 0.08 Absorbance/g tissue

* * *

Give activation at 4 µg/mL for every item shown.
# Tested on: human mucoepidermoid pulmonary carcinoma cell line NCI-H292
# ASSAY REMARKS: Mucin secretion (MUC4, MUC5AC) by ELISA in NCI-H292 cells
# Assay type: cell-based
# ASSAY CONTEXT: 4 μg/mL, 24 hours, read-out: % increase in mucin secretion vs. non-treated control group
Numbers only, in %.

Query: Request the reported activation at 4 µg/mL associated with `COc1ccc(-c2cc(=O)c3c(OC)cc(OCC(=O)NS(N)(=O)=O)cc3o2)cc1OC`
Result: 10.2

Below are 4 molecules. Give each one its activation at 4 µg/mL.
1. COc1ccc(-c2cc(=O)c3c(OC)cc(OCC(=O)NS(=O)(=O)c4ccccc4)cc3o2)cc1OC
2. COc1ccc(-c2cc(=O)c3c(OC)cc(OCc4nnn[nH]4)cc3o2)cc1OC
3. COc1ccc(-c2cc(=O)c3c(OC)cc(OCC(=O)NS(C)(=O)=O)cc3o2)cc1OC
4. COc1ccc(-c2cc(=O)c3c(OC)cc(OCC(=O)NC(C)=O)cc3o2)cc1OC

Result:
[45.4, 28.1, 15.9, 13.6]

Below are 3 molecules. Give each one its activation at 4 µg/mL.
1. COc1ccc(-c2cc(=O)c3c(OC)cc(OCC(=O)O)cc3o2)cc1OC.O [monohydrate]
2. COc1ccc(-c2cc(=O)c3c(OC)cc(OCC(=O)NC(N)=O)cc3o2)cc1OC
3. COc1ccc(-c2cc(=O)c3c(OC)cc(OCC(N)=O)cc3o2)cc1OC

Result:
[39.1, 6.7, 6.6]
